Give measured pIC50 for each item. Keep answers brief.
Target: EGFR (d746-750) (Homo sapiens, UniProt P00533, DEL746-750)
Construct: purchased SignalChem E10-122JG
Sequence (P00533 with tags, fused parts or gaps DEL746-750 limits assumed): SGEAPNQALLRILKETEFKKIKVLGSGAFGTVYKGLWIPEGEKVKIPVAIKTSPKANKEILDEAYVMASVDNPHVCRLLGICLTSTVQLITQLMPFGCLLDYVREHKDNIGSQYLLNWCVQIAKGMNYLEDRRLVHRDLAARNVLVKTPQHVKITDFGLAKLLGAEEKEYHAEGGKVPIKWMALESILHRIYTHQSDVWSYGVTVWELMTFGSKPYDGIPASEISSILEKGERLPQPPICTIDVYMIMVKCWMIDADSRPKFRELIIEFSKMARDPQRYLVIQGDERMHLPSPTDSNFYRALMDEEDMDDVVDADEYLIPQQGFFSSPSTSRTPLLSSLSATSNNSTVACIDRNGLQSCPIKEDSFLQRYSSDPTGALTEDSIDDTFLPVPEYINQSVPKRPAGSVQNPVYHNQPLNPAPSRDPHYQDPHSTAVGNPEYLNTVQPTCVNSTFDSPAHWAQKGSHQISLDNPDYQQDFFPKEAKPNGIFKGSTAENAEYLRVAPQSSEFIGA
Experiment: Biochemical EGFR inhibition assay (Caliper mobility shift), EGFR (d746-750)
Conditions: 1.0 mM ATP or ATP Km; room temperature (25° C.); read-out: Enz EGFR_Exon19-del746-750 IC50
pIC50: −log10 of the molar value.

COMPOUND	QUANTITY_MEASURED	OBSERVED
CN(C)C[C@@H](Oc1cc(-c2cnn(C)c2)cc2ncnc(Nc3ccc4ncccc4c3F)c12)C(F)F (single isomer, unassigned) [Example 38]	pIC50	> 8.00
C[C@@H](CN(C)C)Oc1cc(-c2cnn(C)c2)cc2ncnc(Nc3ccc4ncccc4c3F)c12 (single isomer, unassigned) [Example 4]	pIC50	7.30 to 8.00

# next compound below
Looking for the measured pIC50 of C[C@@H](Oc1cc(-c2cnn(C)c2)cc2ncnc(Nc3ccc4ncccc4c3F)c12)C1COC1 (single isomer, unassigned) [Example 1] , can you help? > 8.00
